# target.desc: SOS-mediated nucleotide exchange on Ras (Homo sapiens, UniProt Q07889)
# Sequence (Q07889 1-1333): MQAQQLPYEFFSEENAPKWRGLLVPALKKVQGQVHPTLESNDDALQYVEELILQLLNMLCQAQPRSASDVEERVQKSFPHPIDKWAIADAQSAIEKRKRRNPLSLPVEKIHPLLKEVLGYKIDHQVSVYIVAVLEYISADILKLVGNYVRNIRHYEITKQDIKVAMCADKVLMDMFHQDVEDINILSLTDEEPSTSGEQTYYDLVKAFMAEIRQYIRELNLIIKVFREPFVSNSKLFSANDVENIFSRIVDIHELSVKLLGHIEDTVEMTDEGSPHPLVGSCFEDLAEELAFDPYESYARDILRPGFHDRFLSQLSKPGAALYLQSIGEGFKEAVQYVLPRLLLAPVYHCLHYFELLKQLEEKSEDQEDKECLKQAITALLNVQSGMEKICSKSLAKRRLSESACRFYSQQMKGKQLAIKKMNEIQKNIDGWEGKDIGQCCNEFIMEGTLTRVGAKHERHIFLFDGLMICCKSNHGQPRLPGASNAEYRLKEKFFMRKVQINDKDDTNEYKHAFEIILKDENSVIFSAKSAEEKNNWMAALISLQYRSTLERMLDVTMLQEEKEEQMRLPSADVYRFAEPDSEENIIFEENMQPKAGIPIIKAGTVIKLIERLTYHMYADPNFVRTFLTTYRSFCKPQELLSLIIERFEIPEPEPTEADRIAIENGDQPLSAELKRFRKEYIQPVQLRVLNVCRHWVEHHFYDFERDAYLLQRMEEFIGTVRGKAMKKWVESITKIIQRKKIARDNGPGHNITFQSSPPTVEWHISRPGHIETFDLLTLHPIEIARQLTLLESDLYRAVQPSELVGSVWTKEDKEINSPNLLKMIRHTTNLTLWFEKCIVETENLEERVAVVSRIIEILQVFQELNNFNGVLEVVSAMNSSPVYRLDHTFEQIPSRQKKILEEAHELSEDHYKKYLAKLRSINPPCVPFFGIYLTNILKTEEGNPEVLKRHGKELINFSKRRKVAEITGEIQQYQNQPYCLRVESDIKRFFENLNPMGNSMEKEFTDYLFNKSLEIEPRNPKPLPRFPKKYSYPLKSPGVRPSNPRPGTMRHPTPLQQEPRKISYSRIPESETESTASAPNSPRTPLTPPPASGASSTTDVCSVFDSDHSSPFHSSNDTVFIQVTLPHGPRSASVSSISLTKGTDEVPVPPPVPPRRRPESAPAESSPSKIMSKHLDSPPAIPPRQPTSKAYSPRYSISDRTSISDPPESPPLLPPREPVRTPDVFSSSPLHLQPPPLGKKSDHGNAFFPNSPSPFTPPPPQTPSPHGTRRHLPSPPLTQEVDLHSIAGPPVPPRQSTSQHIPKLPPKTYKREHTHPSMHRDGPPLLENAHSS
# assay.summary: SOS-mediated nucleotide exchange on Ras (BODIPY-GDP fluorescence)
# run.parameters: Ras loaded with BODIPY-GDP, GTP and SOS added; EC50 from derived exchange rates
pEC50: −log10 of the molar value.
Each record here notes measured pEC50.

{"smiles.string": "C[C@@H](Nc1nc(Nc2ccc(F)c(Cl)c2)nc2c(N3CCNCC3)cccc12)C1CC1", "pEC50": "5.30 to 6.00"}
{"smiles.string": "C[C@@H](Nc1nc(Nc2ccc(F)c(Cl)c2)nc2ccccc12)C(C)(C)C", "pEC50": "5.30 to 6.00"}
{"smiles.string": "Cc1cc(CNc2nc(N[C@H](C)C3CC3)c3ccccc3n2)ccc1F", "pEC50": "5.30 to 6.00"}
{"smiles.string": "CC[C@@H](Nc1nc(Nc2cc(F)cc(F)c2)nc2ccccc12)C1CC1", "pEC50": "5.30 to 6.00"}
{"smiles.string": "C[C@@H](Nc1nc(NCC2CCCCC2)nc2c(CCN)cccc12)c1cccs1", "pEC50": "4.52 to 5.30"}
{"smiles.string": "CC[C@@H](Nc1nc(Nc2cc(C)cc(F)c2)nc2c(C3=CCNCC3)cccc12)C1CC1", "pEC50": "5.30 to 6.00"}
{"smiles.string": "C[C@@H](Nc1nc(Nc2cc(F)cc(F)c2)nc2ccccc12)C(C)(C)C", "pEC50": "5.30 to 6.00"}
{"smiles.string": "C[C@@H](Nc1nc(NCC2CCCCC2)nc2c(C3=CCNCC3)cccc12)C(C)(C)C", "pEC50": "5.30 to 6.00"}
